Please go through the items and note down their EC50.
Test system: CEM cells HIV-1 protection, formazan growth assay
Test: NCI AIDS Antiviral Assay

Query string: Annotate the molecule CN(CC#N)[C@H]1CCC[C@]1(O)/C=C/[Si](C)(C)C with its measured EC50.
Result string: > 28.8 µM

Query string: Annotate the molecule COc1cc(OC)c(C(=O)[O][Sn]([c]2ccccc2)([c]2ccccc2)[c]2ccccc2)cc1OC with its measured EC50.
Result string: > 200 µM

Query string: Annotate the molecule CCC1c2cc3n(c(=O)c2COC1O)Cc1c-3nc2ccccc2c1Cl (centres undefined) with its measured EC50.
Result string: > 10 µM

Query string: Annotate the molecule CC(=O)Oc1cc2c(n(C)c1=O)-c1ccccc1C2 with its measured EC50.
Result string: > 200 µM

Query string: Annotate the molecule O=C(NN=C1CCN(Cc2ccccc2)CC1)C(O)(c1ccccc1)c1ccccc1 with its measured EC50.
Result string: > 200 µM

Query string: Annotate the molecule CCN(CC)C(=S)N=N/C(C)=C1/C=CC=CN1O with its measured EC50.
Result string: > 200 µM

Query string: Annotate the molecule CCOC(=O)C1=c2[nH]c3cccc4cccc(c43)n2C(=O)CC1c1ccccc1 (centres undefined) with its measured EC50.
Result string: > 100 µM

Query string: Annotate the molecule Cc1nc(N)c(N2CCN(Cc3ccccc3)CC2)c(=O)[nH]1 with its measured EC50.
Result string: > 200 µM

Query string: Annotate the molecule COc1ccc2nc3ccc(OC)cc3c(SCC3CO3)c2c1 (centres undefined) with its measured EC50.
Result string: > 200 µM

Query string: Annotate the molecule CSc1nnc(SC)nn1 with its measured EC50.
Result string: > 200 µM

Query string: Annotate the molecule Cc1c(O)nc(CO)[nH]c1=O with its measured EC50.
Result string: > 200 µM

Query string: Annotate the molecule O=[N+]([O-])c1nccn1CC(O)c1ccccc1 (centres undefined) with its measured EC50.
Result string: > 1070 µM

Query string: Annotate the molecule COc1ccc2oc(=N)c(C(=O)Nc3ccccc3)cc2c1 with its measured EC50.
Result string: > 200 µM

Query string: Annotate the molecule O=C(Nc1ccc(C2=NCCN2)cc1)c1ccc(F)c(C(=O)Nc2ccc(C3=NCCN3)cc2)c1 with its measured EC50.
Result string: > 200 µM

Query string: Annotate the molecule Cc1cc([C@H](C#N)c2nc3ccccc3s2)nc(Cl)n1 with its measured EC50.
Result string: > 15.1 µM

Query string: Annotate the molecule CC(=O)SC(C[N+](=O)[O-])c1ccc2c(c1)OCO2 (centres undefined) with its measured EC50.
Result string: > 200 µM

Query string: Annotate the molecule NCCSc1nc2ccccc2c(=O)n1-c1ccccc1 with its measured EC50.
Result string: > 200 µM

Query string: Annotate the molecule O=[N+]([O-])C1CC/C(=N/O)c2nonc21 (centres undefined) with its measured EC50.
Result string: > 200 µM

Query string: Annotate the molecule COC(=O)c1nn2c(=O)[nH]c3ccccc3c2c1C(=O)OC with its measured EC50.
Result string: > 562 µM

Query string: Annotate the molecule Cc1ccccc1N1OS(=O)(=O)CC1(C#N)c1ccccc1 (centres undefined) with its measured EC50.
Result string: > 83.2 µM

Query string: Annotate the molecule O=C(Nc1ccc(Cl)cc1)Nc1ccc(Cl)c(C(F)(F)F)c1 with its measured EC50.
Result string: > 200 µM

Query string: Annotate the molecule CN(C)c1cccc(/C=C(\C#N)c2ccccc2)c1 with its measured EC50.
Result string: > 200 µM

Query string: Annotate the molecule CC(=O)Oc1c2oc3ccc(Cl)cc3c(=O)c2c(O)c2ccsc12 with its measured EC50.
Result string: > 200 µM

Query string: Annotate the molecule O=C(/C=C\c1ccc(/C=C/C(=O)Nc2cccc(C3=NCCCN3)c2)cc1)Nc1cccc(C2=NCCCN2)c1 with its measured EC50.
Result string: > 44.7 µM

====

Test system: CEM cells HIV-1 protection, formazan growth assay
Assay: NCI AIDS Antiviral Assay;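 active = compounds giving half or more protection of infected cells from virus-caused growth loss, again on retest; inactive = the rest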
Write down one outcome, taken from 1 for active, -1 for inactive

Query string: Per the assay record, what outcome was assigned to O=C(O)c1csc(C(=O)O)c1 ?
Result string: 1

Query string: Per the assay record, what outcome was assigned to COc1ccc(N=C(Nc2ccc(OC)cc2)C(=Nc2ccc(OC)cc2)Nc2ccc(OC)cc2)cc1 ?
Result string: -1

Query string: Per the assay record, what outcome was assigned to CC1=C2C(c3ccccc3)(c3ccccc3)C3C=CC2(C=N3)N(C(=O)NC2CCCCC2)C1=O (stereo not given) ?
Result string: -1

Query string: Per the assay record, what outcome was assigned to COC(=O)c1cc2c(o1)Sc1ccccc1NC2=O ?
Result string: -1

Query string: Per the assay record, what outcome was assigned to CCC(CCCN)Nc1cc(OC)cc2c(C)ccnc12 (stereo not given) ?
Result string: -1

Query string: Per the assay record, what outcome was assigned to Cc1cc2c(cc1C)NC(=O)CC(c1ccccc1)=N2 ?
Result string: -1

Query string: Per the assay record, what outcome was assigned to Cc1cnc2c(ccc3c(C)c(C)cnc32)c1C.Cc1cnc2c(ccc3c(C)c(C)cnc32)c1C.O=C1OC(C(O)C[O-])C(O)=C1O.[Cu+] ?
Result string: -1

Query string: Per the assay record, what outcome was assigned to Nc1ccn(C2OC(COC(=O)c3ccccc3)C(OC(=O)c3ccccc3)C2I)c(=O)n1 (stereo not given) ?
Result string: -1

Query string: Per the assay record, what outcome was assigned to CCOC(=O)C(/C=N/C(=S)Nc1c(C)cccc1C)=C(/O)c1ccccc1 ?
Result string: -1

====

Tested on: CEM cells HIV-1 protection, formazan growth assay
Experiment: NCI AIDS Antiviral Assay
Conditions: measured here: growth of uninfected CEM cells
recordedMetric: pIC50
pIC50 is defined as minus the log10 of a concentration measured in mol/L.

Query string: Please respond with reported pIC50 (system CEM cells HIV-1 protection, formazan growth assay) for Oc1ccc(SCc2cc(O)ccc2O)cc1 .
Result string: 5.15

Query string: Please respond with reported pIC50 (system CEM cells HIV-1 protection, formazan growth assay) for CC(C)CC[CH2][Pb]([CH2]CCC(C)C)([CH2]CCC(C)C)[O]C(=O)C(Cl)(Cl)Cl .
Result string: 5.51

Query string: Please respond with reported pIC50 (system CEM cells HIV-1 protection, formazan growth assay) for CC12CCC(=O)N1c1cccnc1N2 (stereo unspecified) .
Result string: 2.95

====

Tested on: CEM cells HIV-1 protection, formazan growth assay
Assay: NCI AIDS Antiviral Assay;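 active = compounds giving half or more protection of infected cells from virus-caused growth loss, again on retest; inactive = the rest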
Write down one outcome, taken from active, inactive

Query string: Per the assay record, what outcome was assigned to CCCCCCCCCCCCCCCCCCNc1nc(=O)n(C2CC(OC(C)=O)C(COP(=O)(O)OCC3CCC(n4ccc(NC(=O)CCCCCCCCCCCCCCC)nc4=O)O3)O2)cc1F (stereo not given) ?
Result string: active

Query string: Per the assay record, what outcome was assigned to COC1/C=C/OC2(C)Oc3c(C)c(O)c4c(O)c(c(/C=N/N5C(C)CN(Cc6ccc(NC(C)=O)cc6)CC5C)c(O)c4c3C2=O)NC(=O)C(C)=C/C=C/C(C)C(O)C(C)C(O)C(C)C(OC(C)=O)C1C (stereo not given) ?
Result string: inactive

Query string: Per the assay record, what outcome was assigned to COc1ccc(CCN(C)CCC[C@](C#N)(c2ccc(OC)c(OC)c2)C(C)C)cc1OC ?
Result string: inactive

Query string: Per the assay record, what outcome was assigned to Cc1cc2c3c(nc2c2cc[nH]c(C)c12)CCCC3 ?
Result string: inactive

Query string: Per the assay record, what outcome was assigned to Cc1ccc(OCC2OC(n3cnc4nc(Nc5ccc(Cl)c(Cl)c5)nc(Cl)c43)CC2Oc2ccc(C)cc2)cc1 (stereo not given) ?
Result string: inactive

Query string: Per the assay record, what outcome was assigned to CC1(n2nc(-c3ccccc3)n(-c3ccccc3)c2=O)CSC1 ?
Result string: inactive

Query string: Per the assay record, what outcome was assigned to CCCC(=O)OC(C(Cl)(Cl)Cl)P(=O)(OC)OC (stereo not given) ?
Result string: inactive

Query string: Per the assay record, what outcome was assigned to COc1ccc(Nc2nc(NS(=O)(=O)c3cc(C)c(Cl)cc3S)n[nH]2)cc1 ?
Result string: active

Query string: Per the assay record, what outcome was assigned to CC1(C)OC(=O)C(=Cc2ccccc2Cl)C(=O)O1 ?
Result string: inactive

Query string: Per the assay record, what outcome was assigned to C1=C2/CC[C@H](Sc3ccccc3)C2C2(CCCCC/1)OCCO2 (stereo not given in full) ?
Result string: inactive

Query string: Per the assay record, what outcome was assigned to COc1cc(CC(=O)O)c(C(=O)c2ccc(C#N)cc2)cc1OC ?
Result string: inactive

Query string: Per the assay record, what outcome was assigned to COc1ccc(NC(=O)CC/C(CC(=O)c2ccco2)=N/NC(=O)C(N)=O)cc1 ?
Result string: inactive

Query string: Per the assay record, what outcome was assigned to CC(C)=CCC/C(C)=C/CC/C(C)=C/C1CCC(=O)C1(C)C (stereo not given) ?
Result string: inactive

Query string: Per the assay record, what outcome was assigned to Cc1[nH]ccc2c1[nH]c1cc(=O)ccc12 ?
Result string: inactive

Query string: Per the assay record, what outcome was assigned to c1cc2sc3ccc(OCCCN4CCCCC4)cc3c2cc1OCCCN1CCCCC1 ?
Result string: inactive

Query string: Per the assay record, what outcome was assigned to Cc1ccc(NCC2(/N=C/c3ccccc3)OC(CO)C(O)C2O)cc1 (stereo not given) ?
Result string: inactive

Query string: Per the assay record, what outcome was assigned to COC(=O)c1c2c(cc3c1CC1(C3)Cc3cc4c(c(C(=O)OC)c3C1)CCC4)CCC2 ?
Result string: inactive

Query string: Per the assay record, what outcome was assigned to O=C(O)CN1C(=O)C(=O)c2cc([N+](=O)[O-])ccc21 ?
Result string: inactive

Query string: Per the assay record, what outcome was assigned to COc1cc2c(cc1O)C1Cc3ccc(OC)c(O)c3C(C2)N1C (stereo not given) ?
Result string: inactive

Query string: Per the assay record, what outcome was assigned to Cc1c(O)c2ccccc2c2c1sc(NCCCN(CCO)CCO)[n+]2C ?
Result string: inactive
